# test.system: plasmepsin II (Plasmodium falciparum)
# Sequence (P46925 125-453): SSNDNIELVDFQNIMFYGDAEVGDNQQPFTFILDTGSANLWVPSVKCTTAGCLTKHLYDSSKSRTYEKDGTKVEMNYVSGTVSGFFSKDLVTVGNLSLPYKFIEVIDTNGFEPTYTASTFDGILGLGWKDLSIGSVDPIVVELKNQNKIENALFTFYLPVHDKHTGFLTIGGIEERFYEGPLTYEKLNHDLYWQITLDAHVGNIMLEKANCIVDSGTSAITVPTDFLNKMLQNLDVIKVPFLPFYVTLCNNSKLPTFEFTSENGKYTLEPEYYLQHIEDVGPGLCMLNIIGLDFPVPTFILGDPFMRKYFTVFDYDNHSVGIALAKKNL
# experimental.details: biochemical
# reported.conditions: Additional Examples table; FRET, pH 5, 37° C., 40 min, substrate 1 μM; read-out: IC50 (nM) on plasmepsin II
Labelling: IC50 reported below 200 nM becomes condition met; at or above becomes condition not met.

- smiles.record: "CCCCC[C@H]1CC[C@H](C(=O)N(Cc2ccc(-c3ccccc3)cc2)C2CCN(Cc3ccccc3)CC2)CC1"
  group.label: "condition not met"
- smiles.record: "CCCCCc1ccc(C(=O)N(Cc2ccc(-c3cccnc3)cc2)C2CCN(Cc3ccc(CO)o3)CC2)cc1"
  group.label: "condition met"
- smiles.record: "CCCCCc1ccc(C(=O)N(Cc2ccc(OCc3ccccc3)cc2O)C2CCN(Cc3ccccc3)CC2)cc1"
  group.label: "condition not met"
- smiles.record: "CCCCCc1ccc(C(=O)N(Cc2ccc(-c3ccc(OC)c(OC)c3)cc2)C2CCN(Cc3ccccc3)CC2)cc1"
  group.label: "condition met"
- smiles.record: "CCCCCc1ccc(C(=O)N(Cc2ccc(-c3cccnc3)cc2)C2CCN(Cc3ccoc3)CC2)cc1"
  group.label: "condition met"
- smiles.record: "CCCCCc1ccc(C(=O)N(Cc2ccc(-c3ccc4c(c3)OCO4)cc2)C2CCN(Cc3ccccc3)CC2)cc1"
  group.label: "condition met"
- smiles.record: "CCCCCc1ccc(C(=O)N(Cc2ccc(-c3cccnc3)cc2)C2CCN(CC3CC3)CC2)cc1"
  group.label: "condition met"
- smiles.record: "CCCCCc1ccc(C(=O)N(Cc2ccc(-c3ccccc3F)cc2)C2CCN(CC3=CCCCC3)CC2)cc1"
  group.label: "condition met"
- smiles.record: "CCCCCc1ccc(C(=O)N(Cc2ccc(-c3ccc(C#N)cc3)cc2)C2CCN(Cc3ccccc3)CC2)cc1"
  group.label: "condition met"
- smiles.record: "CCCCCc1ccc(C(=O)N(Cc2ccc(-c3ccccc3)cc2)C2CCN(Cc3cccnc3)CC2)cc1"
  group.label: "condition met"
- smiles.record: "CCCCCc1ccc(CN(Cc2ccc(-c3ccc(OC)c(OC)c3)cc2)C2CCN(Cc3ccccc3)CC2)cc1"
  group.label: "condition not met"
- smiles.record: "CCCCCc1ccc(C(=O)N(Cc2ccc(O)cc2)C2CCN(Cc3ccccc3)CC2)cc1"
  group.label: "condition not met"
- smiles.record: "CCCCCc1ccc(C(=O)N(Cc2ccc(-c3ccc4c(c3)OCO4)cc2)C2CCN(Cc3ccc(O)cc3)CC2)cc1"
  group.label: "condition met"
- smiles.record: "CCCCCc1ccc(C(=O)N(Cc2ccc(-c3cncnc3)cc2)C2CCN(Cc3ccccc3)CC2)cc1"
  group.label: "condition not met"
- smiles.record: "CCCCCc1ccc(C(=O)N(Cc2ccc(OCc3ccccc3)cc2)[C@@H]2CCN(Cc3ccccc3)C2)cc1"
  group.label: "condition not met"

====

Measured IC50, listed per entry for reference.
# test.system: plasmepsin II (Plasmodium falciparum)
# experimental.details: biochemical
# reported.conditions: Additional Examples table; FRET, pH 5, 37° C., 40 min, substrate 1 μM; read-out: IC50 (nM) on plasmepsin II

- smiles.record: "CCCCCc1ccc(C(=O)N(Cc2ccc(-c3ccccn3)cc2)C2CCN(CC3=CCCCC3)CC2)cc1"
  IC50: "125 nM"
- smiles.record: "CCCCCc1ccc(C(=O)N(Cc2ccc(-c3ccccc3)cc2)C2CCN(Cc3cccc(C(F)(F)F)c3)CC2)cc1"
  IC50: "319 nM"
- smiles.record: "CCCCCc1ccc(C(=O)N(Cc2ccc(N(CCCC)CCCC)cc2)C2CCN(Cc3ccccc3)CC2)cc1"
  IC50: "839 nM"
- smiles.record: "CCCCCc1ccc(C(=O)N(Cc2ccc(-c3ccccc3F)cc2)C2CCN(Cc3ccoc3)CC2)cc1"
  IC50: "87 nM"
- smiles.record: "CCCCCc1ccc(C(=O)N(Cc2ccc(-c3ccccc3F)cc2)C2CCN(Cc3ccncc3)CC2)cc1"
  IC50: "95 nM"
- smiles.record: "CCCCCc1ccc(C(=O)N(Cc2ccc(-c3ccc4c(c3)OCO4)cc2)C2CCN(Cc3ccoc3)CC2)cc1"
  IC50: "52 nM"
- smiles.record: "CCCCCc1ccc(C(=O)N(Cc2ccc(-c3ccccc3)cc2)C2CCN(Cc3ccc(OC)cc3)CC2)cc1"
  IC50: "71 nM"

====

# test.system: plasmepsin II (Plasmodium falciparum)
# experimental.details: biochemical
# reported.conditions: […]; FRET, pH 5, 37° C., 40 min, substrate 1 μM; read-out: IC50 (nM) on plasmepsin II
value.type: log10(IC50) (log10 of the value in nM)

- molecule: "CCCCCc1ccc(CN(C(=O)c2ccc(CCCCC)cc2)C2CCN(Cc3ccccc3)CC2)cc1"
  test.system: "plasmepsin II (Plasmodium falciparum)"
  log10(IC50): 2.70
- molecule: "CCCCCc1ccc(C(=O)N(Cc2ccc(C(F)(F)F)cc2)C2CCN(Cc3ccccc3)CC2)cc1"
  test.system: "plasmepsin II (Plasmodium falciparum)"
  log10(IC50): 2.17
- molecule: "CCCCCc1ccc(C(=O)N(Cc2ccc(-c3ccccc3)cc2)C2CCCN(Cc3ccccc3)CC2)cc1 (racemic)"
  test.system: "plasmepsin II (Plasmodium falciparum)"
  log10(IC50): 3.23
- molecule: "CCCCCc1ccc(C(=O)N(Cc2ccc(OCc3ccccc3)c(OC)c2)C2CCN(Cc3ccccc3)CC2)cc1"
  test.system: "plasmepsin II (Plasmodium falciparum)"
  log10(IC50): 2.90
- molecule: "CCCCCc1ccc(C(=O)N(Cc2ccc(CCCC)cc2)C2CCN(Cc3ccccc3)CC2)cc1"
  test.system: "plasmepsin II (Plasmodium falciparum)"
  log10(IC50): 2.63
- molecule: "CCCCCc1ccc(CN(Cc2ccc(C(F)(F)F)cc2)C2CCN(Cc3ccccc3)CC2)cc1"
  test.system: "plasmepsin II (Plasmodium falciparum)"
  log10(IC50): 2.84
- molecule: "CCCCCc1ccc(CN(Cc2ccc(-c3ccccc3)cc2)C2CCN(Cc3ccccc3)CC2)cc1"
  test.system: "plasmepsin II (Plasmodium falciparum)"
  log10(IC50): 2.32
- molecule: "CCCCCc1ccc(C(=O)N(Cc2ccc(OCc3ccccc3)cc2)C2CCN(Cc3ccccc3)CC2)cc1"
  test.system: "plasmepsin II (Plasmodium falciparum)"
  log10(IC50): 1.85
- molecule: "CCCCCc1ccc(C(=O)N(Cc2ccc(-c3ccccc3)cc2)C2CCN(Cc3ccccc3)CC2)cc1"
  test.system: "plasmepsin II (Plasmodium falciparum)"
  log10(IC50): 1.92
- molecule: "CCCCCc1ccc(C(=O)N(Cc2ccc(-c3ccccc3)cc2)[C@H]2CCN(Cc3ccccc3)C2)cc1"
  test.system: "plasmepsin II (Plasmodium falciparum)"
  log10(IC50): 2.21
- molecule: "CCCCCc1ccc(C(=O)N(Cc2ccc(OCCCC)cc2)C2CCN(Cc3ccccc3)CC2)cc1"
  test.system: "plasmepsin II (Plasmodium falciparum)"
  log10(IC50): 2.34
- molecule: "CCCCCc1ccc(CN(Cc2ccc(-c3ccccc3)cc2)C2CCCN(Cc3ccccc3)CC2)cc1 (racemic)"
  test.system: "plasmepsin II (Plasmodium falciparum)"
  log10(IC50): 3.29
- molecule: "CCCCOc1ccc(C(=O)N(Cc2ccc(OCc3ccccc3)c(OCc3ccccc3)c2)C2CCN(Cc3ccccc3)CC2)cc1"
  test.system: "plasmepsin II (Plasmodium falciparum)"
  log10(IC50): 3.51
- molecule: "CCCCCc1ccc(CN(Cc2ccc(-c3ccc(OCCO)cc3)cc2)C2CCN(Cc3ccccc3)CC2)cc1"
  test.system: "plasmepsin II (Plasmodium falciparum)"
  log10(IC50): 1.98
- molecule: "CCCCOc1ccc(C(=O)N(Cc2ccc(-c3ccccc3)cc2)C2CCN(Cc3ccccc3)CC2)cc1"
  test.system: "plasmepsin II (Plasmodium falciparum)"
  log10(IC50): 3.11

====

# test.system: plasmepsin II (Plasmodium falciparum)
# experimental.details: biochemical
pIC50: −log10 of the molar value.

- molecule: "CCCCCc1ccc(C(=O)N(CCCc2ccccc2)C2CCN(Cc3ccccc3)CC2)cc1 [Example 2]"
  pIC50: 5.82

====

# test.system: plasmepsin II (Plasmodium falciparum)
# experimental.details: biochemical
# reported.conditions: Additional Examples table; FRET, pH 5, 37° C., 40 min, substrate 1 μM; read-out: IC50 (nM) on plasmepsin II

- smiles.record: "CCCCCc1ccc(C(=O)N(Cc2ccc(OCc3ccc(F)cc3)cc2)C2CCN(Cc3ccccc3)CC2)cc1"
  IC50: "79 nM"
- smiles.record: "CCCCCc1ccc(C(=O)N(Cc2ccc(-c3cccnc3)cc2)C2CCN(CC3=CCCCC3)CC2)cc1"
  IC50: "89 nM"
- smiles.record: "CCCCCc1ccc(C(=O)N(Cc2ccc(-c3ccccc3)cc2)C2CCN(Cc3ccc(O)cc3)CC2)cc1"
  IC50: "192 nM"
- smiles.record: "CCCCCc1ccc(C(=O)N(Cc2ccc3ccccc3c2)C2CCN(Cc3ccccc3)CC2)cc1"
  IC50: "248 nM"

====

# test.system: plasmepsin II (Plasmodium falciparum)
# experimental.details: biochemical
# reported.conditions: Additional Examples table; FRET, pH 5, 37° C., 40 min, substrate 1 μM; read-out: IC50 (nM) on plasmepsin II
The compounds listed here are annotated with their IC50.

- smiles.record: "CCCCCc1ccc(C(=O)N(Cc2ccc(-c3ccccc3)cc2)C2CCN(CC3=CCCCC3)CC2)cc1"
  IC50: "196 nM"
- smiles.record: "CCCCCc1ccc(CN(Cc2ccc(-c3ccc(C#N)cc3)cc2)C2CCN(Cc3ccccc3)CC2)cc1"
  IC50: "294 nM"
- smiles.record: "CCCCCc1ccc(C(=O)N(Cc2ccc(-c3ccc4c(c3)OCO4)cc2)C2CCN(CC3=CCCCC3)CC2)cc1"
  IC50: "75 nM"
- smiles.record: "CCCCCc1ccc(C(=O)N(Cc2ccc(-c3ccc(OC)c(OC)c3)cc2)C2CCN(Cc3ccoc3)CC2)cc1"
  IC50: "31 nM"
- smiles.record: "CCCCCc1ccc(C(=O)N(Cc2ccc(-c3cccnc3)cc2)C2CCN(CCC(C)C)CC2)cc1"
  IC50: "20 nM"
- smiles.record: "CCCCCc1ccc(C(=O)N(Cc2ccc(-c3ccccn3)cc2)C2CCN(Cc3ccoc3)CC2)cc1"
  IC50: "168 nM"
- smiles.record: "CCCCCc1ccc(C(=O)N(Cc2ccc(-c3ccccc3F)cc2)C2CCN(Cc3ccccc3)CC2)cc1"
  IC50: "61 nM"
- smiles.record: "CCCCCc1ccc(C(=O)N(Cc2ccc(OCc3ccccc3)cc2)[C@H]2CCN(Cc3ccccc3)C2)cc1"
  IC50: "141 nM"
- smiles.record: "CCCCCc1ccc(C(=O)N(Cc2ccc(-c3ccc(OC)c(OC)c3)cc2)C2CCN(CC3=CCCCC3)CC2)cc1"
  IC50: "19 nM"
- smiles.record: "CCCCCc1ccc(C(=O)N(Cc2ccc(-c3ccccc3)cc2)C2CCN(Cc3ccccc3O)CC2)cc1"
  IC50: "361 nM"
- smiles.record: "CCCCCc1ccc(C(=O)N(Cc2ccc(-c3cccc(OC(F)(F)F)c3)cc2)C2CCN(Cc3ccccc3)CC2)cc1"
  IC50: "816 nM"
- smiles.record: "CCCCCc1ccc(C(=O)N(Cc2ccc(-c3ccccn3)cc2)C2CCN(Cc3ccccc3)CC2)cc1"
  IC50: "209 nM"
- smiles.record: "CCCCCc1ccc(C(=O)N(Cc2ccc(-c3cccc(C)c3)cc2)C2CCN(Cc3ccccc3)CC2)cc1"
  IC50: "140 nM"
- smiles.record: "CCCCCc1ccc(C(=O)N(Cc2ccc(-c3ccccc3)cc2)C2CCN(Cc3ccc(OC(F)(F)F)cc3)CC2)cc1"
  IC50: "692 nM"
- smiles.record: "CCCCCc1ccc(CN(Cc2ccc(-c3ccc4c(c3)OCO4)cc2)C2CCN(Cc3ccccc3)CC2)cc1"
  IC50: "275 nM"
